Hello, the source for this data is the supplement of paper PMC9112550, in case you need it.

- Tested on: Escherichia coli TOP10
- method.summary: shrunken log2 fold change of peptide-encoding DNA abundance (4.5 h post-induction vs induction); higher = less antimicrobial activity (less host growth inhibition)
- stated.conditions: time post-induction: 4.5 h; library: site-saturation at positions 5, 18, 19, 20
Output fulfilled for shrunken log2 fold change not less than -0.01; output not fulfilled otherwise.

[
  {
    "chain": "RRIRNRPPRLPRPRPRPRQGPRP",
    "class.label": "not fulfilled"
  },
  {
    "chain": "RRIRKRPPRLPRPRPRPHGRPRP",
    "class.label": "fulfilled"
  },
  {
    "chain": "RRIRARPPRLPRPRPRPPECPRP",
    "class.label": "fulfilled"
  },
  {
    "chain": "RRIRVRPPRLPRPRPRPLPQPRP",
    "class.label": "fulfilled"
  },
  {
    "chain": "RRIRDRPPRLPRPRPRPDYHPRP",
    "class.label": "not fulfilled"
  },
  {
    "chain": "RRIRNRPPRLPRPRPRPFSRPRP",
    "class.label": "fulfilled"
  },
  {
    "chain": "RRIRPRPPRLPRPRPRPSTIPRP",
    "class.label": "not fulfilled"
  },
  {
    "chain": "RRIRSRPPRLPRPRPRPDMIPRP",
    "class.label": "fulfilled"
  },
  {
    "chain": "RRIRTRPPRLPRPRPRPEIVPRP",
    "class.label": "fulfilled"
  },
  {
    "chain": "RRIRERPPRLPRPRPRPAIEPRP",
    "class.label": "not fulfilled"
  }
]

====

- System: Escherichia coli TOP10
- method.summary: shrunken log2 fold change of peptide-encoding DNA abundance (4.5 h post-induction vs induction); higher = less antimicrobial activity (less host growth inhibition)
- stated.conditions: time post-induction: 4.5 h; library: site-saturation at positions 5, 18, 19, 20
Entries and their measured shrunken log2 fold change follow.

[
  {
    "chain": "RRIRNRPPRLPRPRPRPHWAPRP",
    "tgt": "Escherichia coli TOP10",
    "shrunken log2 fold change": 0.13
  },
  {
    "chain": "RRIRIRPPRLPRPRPRPINWPRP",
    "tgt": "Escherichia coli TOP10",
    "shrunken log2 fold change": -0.402
  },
  {
    "chain": "RRIRSRPPRLPRPRPRPIQAPRP",
    "tgt": "Escherichia coli TOP10",
    "shrunken log2 fold change": -0.0793
  },
  {
    "chain": "RRIRPRPPRLPRPRPRPTCFPRP",
    "tgt": "Escherichia coli TOP10",
    "shrunken log2 fold change": 0.0572
  },
  {
    "chain": "RRIRYRPPRLPRPRPRPESGPRP",
    "tgt": "Escherichia coli TOP10",
    "shrunken log2 fold change": -0.0308
  },
  {
    "chain": "RRIRDRPPRLPRPRPRPQMMPRP",
    "tgt": "Escherichia coli TOP10",
    "shrunken log2 fold change": -0.211
  },
  {
    "chain": "RRIRARPPRLPRPRPRPWSMPRP",
    "tgt": "Escherichia coli TOP10",
    "shrunken log2 fold change": -0.198
  },
  {
    "chain": "RRIRWRPPRLPRPRPRPFRHPRP",
    "tgt": "Escherichia coli TOP10",
    "shrunken log2 fold change": -0.0307
  },
  {
    "chain": "RRIRFRPPRLPRPRPRPLAGPRP",
    "tgt": "Escherichia coli TOP10",
    "shrunken log2 fold change": -0.104
  },
  {
    "chain": "RRIRWRPPRLPRPRPRPYEFPRP",
    "tgt": "Escherichia coli TOP10",
    "shrunken log2 fold change": -0.00843
  },
  {
    "chain": "RRIRRRPPRLPRPRPRPFCFPRP",
    "tgt": "Escherichia coli TOP10",
    "shrunken log2 fold change": 0.218
  },
  {
    "chain": "RRIRQRPPRLPRPRPRPGKCPRP",
    "tgt": "Escherichia coli TOP10",
    "shrunken log2 fold change": 0.0125
  },
  {
    "chain": "RRIRFRPPRLPRPRPRPSHVPRP",
    "tgt": "Escherichia coli TOP10",
    "shrunken log2 fold change": -0.281
  },
  {
    "chain": "RRIRMRPPRLPRPRPRPEVMPRP",
    "tgt": "Escherichia coli TOP10",
    "shrunken log2 fold change": 2.84
  },
  {
    "chain": "RRIRARPPRLPRPRPRPEGKPRP",
    "tgt": "Escherichia coli TOP10",
    "shrunken log2 fold change": 0.702
  },
  {
    "chain": "RRIRDRPPRLPRPRPRPSSQPRP",
    "tgt": "Escherichia coli TOP10",
    "shrunken log2 fold change": -0.0971
  },
  {
    "chain": "RRIRERPPRLPRPRPRPVLRPRP",
    "tgt": "Escherichia coli TOP10",
    "shrunken log2 fold change": -0.156
  },
  {
    "chain": "RRIRFRPPRLPRPRPRPDHLPRP",
    "tgt": "Escherichia coli TOP10",
    "shrunken log2 fold change": -0.00942
  },
  {
    "chain": "RRIRIRPPRLPRPRPRPQRWPRP",
    "tgt": "Escherichia coli TOP10",
    "shrunken log2 fold change": 0.304
  }
]

====

- Test system: Escherichia coli TOP10
- method.summary: shrunken log2 fold change of peptide-encoding DNA abundance (4.5 h post-induction vs induction); higher = less antimicrobial activity (less host growth inhibition)
- stated.conditions: time post-induction: 4.5 h; library: site-saturation at positions 5, 18, 19, 20
# binning rule on shrunken log2 fold change: A: < -0.1; B: ≥ -0.1 and < 0.03; C: ≥ 0.03

[
  {
    "chain": "RRIRMRPPRLPRPRPRPLLEPRP",
    "class.label": "C"
  },
  {
    "chain": "RRIRARPPRLPRPRPRPDAQPRP",
    "class.label": "C"
  },
  {
    "chain": "RRIRKRPPRLPRPRPRPMLIPRP",
    "class.label": "C"
  },
  {
    "chain": "RRIRDRPPRLPRPRPRPECIPRP",
    "class.label": "B"
  },
  {
    "chain": "RRIRIRPPRLPRPRPRPKRCPRP",
    "class.label": "B"
  },
  {
    "chain": "RRIRLRPPRLPRPRPRPAEMPRP",
    "class.label": "A"
  },
  {
    "chain": "RRIRHRPPRLPRPRPRPNGNPRP",
    "class.label": "A"
  },
  {
    "chain": "RRIRYRPPRLPRPRPRPLAVPRP",
    "class.label": "B"
  },
  {
    "chain": "RRIRLRPPRLPRPRPRPNCIPRP",
    "class.label": "A"
  },
  {
    "chain": "RRIRIRPPRLPRPRPRPIQNPRP",
    "class.label": "A"
  },
  {
    "chain": "RRIRYRPPRLPRPRPRPPKEPRP",
    "class.label": "B"
  },
  {
    "chain": "RRIRVRPPRLPRPRPRPVSLPRP",
    "class.label": "C"
  },
  {
    "chain": "RRIRGRPPRLPRPRPRPPMWPRP",
    "class.label": "C"
  },
  {
    "chain": "RRIRNRPPRLPRPRPRPCYWPRP",
    "class.label": "A"
  },
  {
    "chain": "RRIRARPPRLPRPRPRPMQDPRP",
    "class.label": "C"
  },
  {
    "chain": "RRIRIRPPRLPRPRPRPMTSPRP",
    "class.label": "B"
  },
  {
    "chain": "RRIRYRPPRLPRPRPRPGITPRP",
    "class.label": "A"
  }
]

====

Overview of recorded shrunken log2 fold change for various sequences
- Tested on: Escherichia coli TOP10;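 note: peptides expressed intracellularly from a pBAD plasmid library in pooled LB shake-flask culture, induced with 0.3% L-arabinose, DNA abundance read by NGS, three biological replicates, DESeq2 with apeglm shrinkage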
- method.summary: shrunken log2 fold change of peptide-encoding DNA abundance (4.5 h post-induction vs induction); higher = less antimicrobial activity (less host growth inhibition)
- stated.conditions: time post-induction: 4.5 h; library: site-saturation at positions 5, 18, 19, 20

[
  {
    "chain": "RRIRLRPPRLPRPRPRPGMEPRP",
    "tgt": "Escherichia coli TOP10",
    "shrunken log2 fold change": 0.251
  },
  {
    "chain": "RRIRRRPPRLPRPRPRPCNSPRP",
    "tgt": "Escherichia coli TOP10",
    "shrunken log2 fold change": 0.00408
  },
  {
    "chain": "RRIRWRPPRLPRPRPRPIMFPRP",
    "tgt": "Escherichia coli TOP10",
    "shrunken log2 fold change": -0.189
  },
  {
    "chain": "RRIRPRPPRLPRPRPRPVVHPRP",
    "tgt": "Escherichia coli TOP10",
    "shrunken log2 fold change": -0.205
  },
  {
    "chain": "RRIRPRPPRLPRPRPRPEQRPRP",
    "tgt": "Escherichia coli TOP10",
    "shrunken log2 fold change": 0.124
  },
  {
    "chain": "RRIRHRPPRLPRPRPRPVTNPRP",
    "tgt": "Escherichia coli TOP10",
    "shrunken log2 fold change": -0.222
  },
  {
    "chain": "RRIRDRPPRLPRPRPRPRIPPRP",
    "tgt": "Escherichia coli TOP10",
    "shrunken log2 fold change": -0.108
  },
  {
    "chain": "RRIRSRPPRLPRPRPRPLFTPRP",
    "tgt": "Escherichia coli TOP10",
    "shrunken log2 fold change": -0.0175
  },
  {
    "chain": "RRIRERPPRLPRPRPRPDYYPRP",
    "tgt": "Escherichia coli TOP10",
    "shrunken log2 fold change": -0.603
  },
  {
    "chain": "RRIRLRPPRLPRPRPRPYPYPRP",
    "tgt": "Escherichia coli TOP10",
    "shrunken log2 fold change": -0.076
  },
  {
    "chain": "RRIRERPPRLPRPRPRPWVGPRP",
    "tgt": "Escherichia coli TOP10",
    "shrunken log2 fold change": 0.0249
  },
  {
    "chain": "RRIRPRPPRLPRPRPRPTMWPRP",
    "tgt": "Escherichia coli TOP10",
    "shrunken log2 fold change": 0.457
  },
  {
    "chain": "RRIRFRPPRLPRPRPRPFPTPRP",
    "tgt": "Escherichia coli TOP10",
    "shrunken log2 fold change": -0.0582
  },
  {
    "chain": "RRIRERPPRLPRPRPRPGNRPRP",
    "tgt": "Escherichia coli TOP10",
    "shrunken log2 fold change": -0.0677
  },
  {
    "chain": "RRIRDRPPRLPRPRPRPMLFPRP",
    "tgt": "Escherichia coli TOP10",
    "shrunken log2 fold change": -0.0792
  },
  {
    "chain": "RRIRKRPPRLPRPRPRPMKRPRP",
    "tgt": "Escherichia coli TOP10",
    "shrunken log2 fold change": 0.138
  },
  {
    "chain": "RRIRMRPPRLPRPRPRPAADPRP",
    "tgt": "Escherichia coli TOP10",
    "shrunken log2 fold change": 2.81
  },
  {
    "chain": "RRIRDRPPRLPRPRPRPIDPPRP",
    "tgt": "Escherichia coli TOP10",
    "shrunken log2 fold change": -0.107
  },
  {
    "chain": "RRIRTRPPRLPRPRPRPHEWPRP",
    "tgt": "Escherichia coli TOP10",
    "shrunken log2 fold change": 0.00742
  },
  {
    "chain": "RRIRMRPPRLPRPRPRPSFKPRP",
    "tgt": "Escherichia coli TOP10",
    "shrunken log2 fold change": -0.0765
  },
  {
    "chain": "RRIRYRPPRLPRPRPRPEHIPRP",
    "tgt": "Escherichia coli TOP10",
    "shrunken log2 fold change": -0.0114
  },
  {
    "chain": "RRIRYRPPRLPRPRPRPNQTPRP",
    "tgt": "Escherichia coli TOP10",
    "shrunken log2 fold change": -0.0672
  }
]
